system_tested: HLA-A*24 (peptide-receptive MHC class I monomer of the UV-ligand exchange assay) (human)
experiment_summary: UV-ligand exchange with anti-b2m ELISA
Quick list: peptide exchange yield per entry.

QYLQDAYSF [Peptide SEQ ID NO: 272 (…)]: > 75%

Quick one: peptide exchange yield of QYLGQIQHI [Peptide SEQ ID NO: 268 (…)] ? 50 to 75%

Quick one: peptide exchange yield of SYALLTYMI [Peptide SEQ ID NO: 192 (…)] ? > 75%

Quick one: peptide exchange yield of VYVGGGQIIHL [Peptide SEQ ID NO: 174 (…)] ? 50 to 75%
